B1: NF2 (merlin) isoform 7, human, full length (507 aa, lacks exons 2-3 = isoform-1 residues 39-121; exon-16 C-terminus), P35240-4 (parent)
chain: MAGAIASRMSFSSLKRKQPKTFTVRIVTMDAEMEFNCEVKKQILDEKIYCPPEASVLLASYAVQAKYGDYDPSVHKRGFLAQEELLPKRVINLYQMTPEMWEERITAWYAEHRGRARDEAEMEYLKIAQDLEMYGVNYFAIRNKKGTELLLGVDALGLHIYDPENRLTPKISFPWNEIRNISYSDKEFTIKPLDKKIDVFKFNSSKLRVNKLILQLCIGNHDLFMRRRKADSLEVQQMKAQAREEKARKQMERQRLAREKQMREEAERTRDELERRLLQMKEEATMANEALMRSEETADLLAEKAQITEEEAKLLAQKAAEAEQEMQRIKATAIRTEEEKRLMEQKVLEAEVLALKMAEESERRAKEADQLKQDLQEAREAERRAKQKLLEIATKPTYPPMNPIPAPLPPDIPSFNLIGDSLSFDFKDTDMKRLSMEIEKEKVEYMEKSKHLQEQLNELKTEIEALKLKERETALDILHNENSDRGGSSKHNTIKKPQAQGRRPICI

# Variants of: B1
# test: reverse yeast two-hybrid deep mutational scan (rY2H-seq): NF2 isoform 7 mutant library as bait mated with wild-type prey strains; selection on medium lacking adenine for non-interacting pairs; NextSeq paired-end sequencing; enrichment vs …
# appliedConditions: with NF2 C-terminal domain (wild type; homomeric NF2-NF2 interaction), P35240; yeast diploids after mating (RBait_S3 x RPrey_S3), 30 °C, selection for reporter genes on NB agar; human ABL2 co-expressed as the kinase-dead K35M mutant …; HIGHER = WEAKER BINDING (the opposite of display enrichments): higher = stronger loss of interaction: reverse Y2H selects yeast in which bait and prey do NOT interact (growth without adenine), so a …; hits-only table; partner unresolved; scale: rY2H score; numbering: uniprot, sequence starts at 1
experimentalReadout: enrichment

P: Q373K
Q: Q317E
Query string: Name the one with the greater enrichment value, either P or Q as given. Use the label to indicate which entry you chose.
Result string: Q
